# Tested on: Red root pigweed (Amaranthus)
# measurementDescription: Preliminary herbicide seed germination test (pre-emergent), red root pigweed
# Type: in vivo, Amaranthus retroflexus
# Set-up: key: 5: no seedling emerged; 4: few seedlings emerged and/or very severe stunting; 3: moderate reduction in stand and/or moderate stunting.; 2: very slight reduction in stand and/or slight stunting; 1: no injury, seedlings appear no different with respect to stand or growth than untreated controls
# assaySetup: Table II; ten to twelve days after application
outcomeMeasure: Pre-emergent Herbicidal, Amaranthus
Reply with the value as a number alone.

Query string: What is its Pre-emergent Herbicidal, Amaranthus for Red root pigweed (Amaranthus)? Entry: Cc1ccc(C)c(C2=C(OC(=O)C(C)(C)C)C3CCCCC3C2=O)c1 (centres unmarked)
Result string: 1

Query string: What is its Pre-emergent Herbicidal, Amaranthus for Red root pigweed (Amaranthus)? Entry: CCCCC(CC)C(=O)OC1=C(c2ccccc2C)C(=O)CC1 (centres unmarked)
Result string: 3

Query string: What is its Pre-emergent Herbicidal, Amaranthus for Red root pigweed (Amaranthus)? Entry: Cc1ccc(C)c(C2=C(OC(=O)C(C)C)C3CCCCC3C2=O)c1 (centres unmarked)
Result string: 1

Query string: What is its Pre-emergent Herbicidal, Amaranthus for Red root pigweed (Amaranthus)? Entry: CCCCC(CC)C(=O)OC1=C(c2ccccc2C)C(=O)C2CCCCC12 (centres unmarked)
Result string: 2

Query string: What is its Pre-emergent Herbicidal, Amaranthus for Red root pigweed (Amaranthus)? Entry: CCCCCCCCCC(=O)OC1=C(c2ccccc2C)C(=O)C2CCCCC12 (centres unmarked)
Result string: 3

====

Could you please report measured Pre-emergent Herbicidal, Amaranthus for the items listed next?
# Test system: Red root pigweed (Amaranthus)
# measurementDescription: Preliminary herbicide seed germination test (pre-emergent), red root pigweed
# Format: in vivo, Amaranthus retroflexus
# Design: key: 5: no seedling emerged; 4: few seedlings emerged and/or very severe stunting; 3: moderate reduction in stand and/or moderate stunting.; 2: very slight reduction in stand and/or slight stunting; 1: no injury, seedlings appear no different with respect to stand or growth than untreated controls
# assaySetup: Table II; ten to twelve days after application
Reply with the value as a number alone.

Query string: What is its Pre-emergent Herbicidal, Amaranthus for Red root pigweed (Amaranthus)? Entry: CCCCC(CC)C(=O)OC1=C(c2ccccc2Cl)C(=O)CC1 (stereo not shown)
Result string: 5

Query string: What is its Pre-emergent Herbicidal, Amaranthus for Red root pigweed (Amaranthus)? Entry: CCCCCCCCCCCCCCCC(=O)OC1=C(c2cc(C)ccc2C)C(=O)C(C)C1 (stereo not shown)
Result string: 1

Query string: What is its Pre-emergent Herbicidal, Amaranthus for Red root pigweed (Amaranthus)? Entry: CC(=O)OC1=C(c2cc(C)ccc2C)C(=O)C2CCCCC12 (stereo not shown)
Result string: 1

Query string: What is its Pre-emergent Herbicidal, Amaranthus for Red root pigweed (Amaranthus)? Entry: CCCCC(CC)C(=O)OC1=C(c2cc(C)ccc2C)C(=O)C(C)C1 (stereo not shown)
Result string: 3

Query string: What is its Pre-emergent Herbicidal, Amaranthus for Red root pigweed (Amaranthus)? Entry: CCCCCCCCCCCCCCCC(=O)OC1=C(c2cc(C)ccc2C)C(=O)C2CCCCC12 (stereo not shown)
Result string: 1

Query string: What is its Pre-emergent Herbicidal, Amaranthus for Red root pigweed (Amaranthus)? Entry: CCCCCCCCCCCCCCCC(=O)OC1=C(c2ccccc2C)C(=O)CC1
Result string: 3

Query string: What is its Pre-emergent Herbicidal, Amaranthus for Red root pigweed (Amaranthus)? Entry: Cc1ccccc1C1=C(OC(=O)C(C)(C)C)C2CCCCC2C1=O (stereo not shown)
Result string: 2

Query string: What is its Pre-emergent Herbicidal, Amaranthus for Red root pigweed (Amaranthus)? Entry: CC(=O)OC1=C(c2ccc(C)cc2C)C(=O)C2CCCCC12 (stereo not shown)
Result string: 3

Query string: What is its Pre-emergent Herbicidal, Amaranthus for Red root pigweed (Amaranthus)? Entry: CC(=O)OC1=C(c2ccc(Cl)cc2Cl)C(=O)CC1
Result string: 2

Query string: What is its Pre-emergent Herbicidal, Amaranthus for Red root pigweed (Amaranthus)? Entry: Cc1ccc(C2=C(OC(=O)c3ccccc3)CCC2=O)c(C)c1
Result string: 1

Query string: What is its Pre-emergent Herbicidal, Amaranthus for Red root pigweed (Amaranthus)? Entry: CC(=O)OC1=C(c2cc(C)ccc2C)C(=O)CC1
Result string: 3

Query string: What is its Pre-emergent Herbicidal, Amaranthus for Red root pigweed (Amaranthus)? Entry: Cc1ccc(C)c(C2=C(OC(=O)C(C)C)CC(C)C2=O)c1 (stereo not shown)
Result string: 3

Query string: What is its Pre-emergent Herbicidal, Amaranthus for Red root pigweed (Amaranthus)? Entry: CCCCC(CC)C(=O)OC1=C(c2ccc(C)cc2C)C(=O)C2CCCCC12 (stereo not shown)
Result string: 1

Query string: What is its Pre-emergent Herbicidal, Amaranthus for Red root pigweed (Amaranthus)? Entry: CCCCCCCCCCCCCCCC(=O)OC1=C(c2cc(C)ccc2C)C(=O)CC1
Result string: 1

Query string: What is its Pre-emergent Herbicidal, Amaranthus for Red root pigweed (Amaranthus)? Entry: Cc1ccc(C2=C(OC(=O)c3ccccc3)C3CCCCC3C2=O)c(C)c1 (stereo not shown)
Result string: 4

Query string: What is its Pre-emergent Herbicidal, Amaranthus for Red root pigweed (Amaranthus)? Entry: Cc1ccc(C)c(C2=C(OC(=O)C(C)C)CCC2=O)c1
Result string: 1

Query string: What is its Pre-emergent Herbicidal, Amaranthus for Red root pigweed (Amaranthus)? Entry: O=C1CCC(OC(=O)c2ccccc2)=C1c1ccccc1Cl
Result string: 1

Query string: What is its Pre-emergent Herbicidal, Amaranthus for Red root pigweed (Amaranthus)? Entry: CC(C)C(=O)OC1=C(c2ccc(Cl)cc2Cl)C(=O)CC1
Result string: 1

Query string: What is its Pre-emergent Herbicidal, Amaranthus for Red root pigweed (Amaranthus)? Entry: CCCCC(CC)C(=O)OC1=C(c2ccc(C)cc2C)C(=O)CC1 (stereo not shown)
Result string: 2

Query string: What is its Pre-emergent Herbicidal, Amaranthus for Red root pigweed (Amaranthus)? Entry: CCCCC(CC)C(=O)OC1=C(c2ccc(Cl)cc2Cl)C(=O)CC1 (stereo not shown)
Result string: 1

Query string: What is its Pre-emergent Herbicidal, Amaranthus for Red root pigweed (Amaranthus)? Entry: CCCCC(CC)C(=O)OC1=C(c2cc(C)ccc2C)C(=O)CC1 (stereo not shown)
Result string: 1

Query string: What is its Pre-emergent Herbicidal, Amaranthus for Red root pigweed (Amaranthus)? Entry: CCCCCCCCCCCCCCCC(=O)OC1=C(c2ccccc2C)C(=O)C2CCCCC12 (stereo not shown)
Result string: 2

Query string: What is its Pre-emergent Herbicidal, Amaranthus for Red root pigweed (Amaranthus)? Entry: CCCCCCCCCC(=O)OC1=C(c2cc(C)ccc2C)C(=O)C2CCCCC12 (stereo not shown)
Result string: 1

Query string: What is its Pre-emergent Herbicidal, Amaranthus for Red root pigweed (Amaranthus)? Entry: Cc1ccccc1C1=C(OC(=O)C(C)C)C2CCCCC2C1=O (stereo not shown)
Result string: 3

Query string: What is its Pre-emergent Herbicidal, Amaranthus for Red root pigweed (Amaranthus)? Entry: CC(=O)OC1=C(c2ccccc2C)C(=O)C2CCCCC12 (stereo not shown)
Result string: 4

Query string: What is its Pre-emergent Herbicidal, Amaranthus for Red root pigweed (Amaranthus)? Entry: CC(=O)OC1=C(c2cc(C)ccc2C)C(=O)C(C)C1 (stereo not shown)
Result string: 3

Query string: What is its Pre-emergent Herbicidal, Amaranthus for Red root pigweed (Amaranthus)? Entry: CCCCC(CC)C(=O)OC1=C(c2cc(C)ccc2C)C(=O)C2CCCCC12 (stereo not shown)
Result string: 1

Query string: What is its Pre-emergent Herbicidal, Amaranthus for Red root pigweed (Amaranthus)? Entry: CCCCCCCCCCCCCCCC(=O)OC1=C(c2ccc(Cl)cc2Cl)C(=O)CC1
Result string: 1

These data points were gathered from patent US4551547A.
